Quick list: koff per entry.
biological target: T1, wild type human CD47 (Acro Biosystems, cat. no. CD7-H5227) (human, UniProt Q08722 19-139); experiment: SPR, IgG captured, CD47 in flow; exp 4;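 also: biacore T200 SPR using IgG from transfected HEK293 supernatants against wild-type human CD47 or its C33G mutein, rates fitted to association and dissociation curves, KD estimated from them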
T1 construct: Bought protein used as SPR analyte; also called Human CD47 wt; wild-type CD47
T1 sequence (Q08722 19-139 limits assumed): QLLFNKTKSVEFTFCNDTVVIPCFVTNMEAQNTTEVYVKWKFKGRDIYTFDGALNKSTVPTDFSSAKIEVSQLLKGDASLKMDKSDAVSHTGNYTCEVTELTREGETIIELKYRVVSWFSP
Write the number in s⁻¹ without appending the unit.

Worked examples, 2 binders total:
[[record]]
binder = "chimeric antibody 108C10A6 (antibody, V domains shown, Chimeric antibody with mouse variable domains; captured through human Fc; also called VH / VL) VH: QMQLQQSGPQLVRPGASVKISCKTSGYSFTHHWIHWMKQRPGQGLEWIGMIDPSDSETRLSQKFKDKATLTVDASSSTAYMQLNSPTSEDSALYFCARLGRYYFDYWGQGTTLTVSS VL: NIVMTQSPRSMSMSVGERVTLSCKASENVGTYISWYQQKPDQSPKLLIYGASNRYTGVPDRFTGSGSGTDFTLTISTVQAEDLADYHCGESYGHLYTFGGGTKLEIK"
property = "koff"
unit_string = "s⁻¹"
value = 0.0003

[[record]]
binder = "108VH5.M20 / 108VL1.M5 (antibody, human IgG4 S228P, kappa, V domains shown, Full-length IgG4 (S228P), kappa; also called VH5.M20 VL1.M5) VH: EVQLVQSGAEVKKPGASVKVSCKASGYTFTHHWMHWVRQAPGQGLEWMGMIDASDAETRYAQKFQGRVTMTRDTSTSTVYMELSSLRSEDTAVYYCARLGRYYFDYWGQGTLVTVSS VL: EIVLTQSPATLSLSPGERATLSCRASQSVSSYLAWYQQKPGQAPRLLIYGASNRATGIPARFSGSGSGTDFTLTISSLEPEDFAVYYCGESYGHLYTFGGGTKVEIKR"
property = "koff"
unit_string = "s⁻¹"
value = 0.0022


# input binder: 108VH5.M22 / 108VL1.M5 (antibody, human IgG4 S228P, kappa, V domains shown, Full-length IgG4 (S228P), kappa; also called VH5.M22 VL1.M5) VH: EVQLVQSGAEVKKPGASVKVSCKASGYTFTHHWMHWVRQAPGQGLEWMGMIDASDIETRYAQKFQGRVTMTRDTSTSTVYMELSSLRSEDTAVYYCARLGRYYFDYWGQGTLVTVSS VL: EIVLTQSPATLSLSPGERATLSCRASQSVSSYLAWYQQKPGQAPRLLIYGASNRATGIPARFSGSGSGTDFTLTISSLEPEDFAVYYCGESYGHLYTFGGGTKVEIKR ; wanted: its koff
0.0029

# input binder: 108VH5.M26 / 108VL1.M5 (antibody, human IgG4 S228P, kappa, V domains shown, Full-length IgG4 (S228P), kappa; also called VH5.M26 VL1.M5) VH: EVQLVQSGAEVKKPGASVKVSCKASGYTFTHHWMHWVRQAPGQGLEWMGMIDASDVETRYAQKFQGRVTMTRDTSTSTVYMELSSLRSEDTAVYYCARLGRYYFDYWGQGTLVTVSS VL: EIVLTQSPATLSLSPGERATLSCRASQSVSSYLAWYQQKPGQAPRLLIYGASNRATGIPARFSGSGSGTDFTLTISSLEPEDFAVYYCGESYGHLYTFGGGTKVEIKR ; wanted: its koff
0.0026

Data origin, for the record: patent US20260132197A1
